Taken from DBAASP.

Quick record: MIC, Escherichia coli ATCC 25922.
metric name: MIC

1. CC[C@H](C)[C@H](NC(=O)[C@H](CCCN=C(N)N)NC(=O)[C@H](CCCCN)NC(=O)[C@H](CC(C)C)NC(=O)[C@@H](NC(=O)CN)C(C)C)C(=O)N[C@@H](CCCCN)C(=O)N[C@H](C(=O)N[C@@H](CC(C)C)C(=O)N[C@H](C(N)=O)C(C)C)[C@@H](C)O = > 200 µM
2. CC[C@H](C)[C@H](NC(=O)[C@@H](NC(=O)[C@H](CO)NC(=O)[C@H](C)NC(=O)[C@@H](NC(=O)[C@H](CCCCN)NC(=O)[C@H](CCCN=C(N)N)NC(=O)[C@@H](NC(=O)[C@@H](NC(=O)[C@H](CCCN=C(N)N)NC(=O)[C@H](Cc1c[nH]c2ccccc12)NC(=O)[C@H](CC(C)C)NC(=O)CN)C(C)C)[C@@H](C)CC)C(C)C)C(C)C)C(=O)NCC(=O)NCC(=O)N[C@@H](CC(C)C)C(=O)O = 2.32 µM
3. CC[C@H](C)[C@H](NC(=O)[C@@H](NC(=O)[C@@H]1CCCN1C(=O)CNC(=O)[C@@H](NC(=O)[C@@H](N)Cc1ccccc1)[C@@H](C)CC)[C@@H](C)CC)C(=O)N[C@@H](CO)C(=O)N[C@@H](C)C(=O)N[C@@H](CC(C)C)C(=O)N[C@@H](C)C(=O)N[C@@H](CO)C(=O)N[C@@H](CC(C)C)C(=O)N[C@@H](Cc1ccccc1)C(=O)NCC(N)=O = > 60 µM

---

// Escherichia coli ATCC 25922 log10 of MIC records
metric name: log10 of MIC (log10 of the value in µM)

1) CSCC[C@H](NC(=O)[C@H](CCCN=C(N)N)NC(=O)[C@H](Cc1c[nH]c2ccccc12)NC(=O)[C@H](C)NC(=O)[C@H](Cc1c[nH]c2ccccc12)NC(=O)[C@H](CCCN=C(N)N)NC(=O)[C@H](Cc1ccc(O)cc1)NC(=O)[C@H](Cc1c[nH]c2ccccc12)NC(=O)[C@H](CCCN=C(N)N)NC(=O)[C@@H](N)CCCN=C(N)N)C(=O)N[C@@H](CCCN=C(N)N)C(N)=O [RRWYRWAWRMR] = 0.76
2) CC[C@H](C)[C@H](NC(=O)[C@H](CCCN=C(N)N)NC(=O)[C@H](CCCN=C(N)N)NC(=O)[C@H](CC(C)C)NC(=O)[C@H](CCCN=C(N)N)NC(=O)[C@H](Cc1c[nH]c2ccccc12)NC(=O)[C@@H](N)Cc1c[nH]c2ccccc12)C(=O)N[C@@H](Cc1c[nH]c2ccccc12)C(N)=O [WWRLRRIW] = 1.40
3) CC(C)C[C@H](NC(=O)[C@H](CCCCN)NC(=O)[C@H](CC(C)C)NC(=O)[C@H](CC(C)C)NC(=O)[C@H](CCCCN)NC(=O)[C@H](CCCCN)NC(=O)[C@H](CCC(N)=O)NC(=O)[C@H](CC(C)C)NC(=O)[C@H](CCCCN)NC(=O)[C@H](CC(C)C)NC(=O)[C@H](CC(C)C)NC(=O)[C@H](CCCCN)NC(=O)[C@H](CCCCN)NC(=O)[C@@H](N)CC(C)C)C(=O)N[C@@H](C)C(=O)NCC(=O)O [LKKLLKLQKKLLKLAG] = 0.40
4) CC(C)C[C@H](NC(=O)CNC(=O)[C@H](CCCCN)NC(=O)[C@H](Cc1ccccc1)NC(=O)[C@H](CCCCN)NC(=O)[C@H](Cc1c[nH]c2ccccc12)NC(=O)[C@H](CCCN=C(N)N)NC(=O)[C@H](Cc1ccccc1)NC(=O)[C@H](CCCN=C(N)N)NC(=O)[C@H](CCCN=C(N)N)NC(=O)[C@H](Cc1ccc(O)cc1)NC(=O)[C@H](CCCCN)NC(=O)[C@H](CCCCN)NC(=O)CN)C(=O)N[C@@H](Cc1ccccc1)C(=O)N[C@@H](CC(C)C)C(=O)N[C@@H](Cc1ccccc1)C(=O)N[C@@H](CC(C)C)C(=O)NCC(N)=O [GKKYRRFRWKFKGLFLFLG] = 1.42
5) CC[C@H](C)[C@H](NC(=O)[C@H](CC(C)C)NC(=O)[C@H](CCC(N)=O)NC(=O)[C@@H](NC(=O)[C@H](CCCN=C(N)N)NC(=O)[C@@H](NC(=O)[C@H](CS)NC(=O)[C@H](CCCCN)NC(=O)[C@@H](N)CCCN=C(N)N)C(C)C)C(C)C)C(=O)N[C@@H](CCCCN)C(=O)N[C@@H](CC(N)=O)C(=O)NCC(=O)N[C@@H](CCCCN)C(=O)N[C@@H](CCCCN)C(=O)N[C@H](C(=O)N[C@H](C(=O)N[C@@H](C)C(=O)N[C@@H](Cc1ccccc1)C(N)=O)[C@@H](C)O)[C@@H](C)CC [RKCVRVQLIKNGKKITAF] = 0.92

---

Lab note: MIC readings collected with Staphylococcus aureus USA 300 for the following molecules.
metric name: MIC

1) CC[C@H](C)[C@H](NC(=O)[C@H](CCCN=C(N)N)NC(=O)[C@H](CCCN=C(N)N)NC(=O)[C@H](CC(C)C)NC(=O)[C@H](CCCN=C(N)N)NC(=O)[C@H](Cc1c[nH]c2ccccc12)NC(=O)[C@@H](N)Cc1c[nH]c2ccccc12)C(=O)N[C@@H](Cc1c[nH]c2ccccc12)C(N)=O = 12.5 µM
2) NC(=O)[C@H](Cc1c[nH]c2ccccc12)NC(=O)[C@H](Cc1c[nH]c2ccccc12)NC(=O)[C@H](Cc1c[nH]c2ccccc12)NC(=O)[C@H](CCCN=C(N)N)NC(=O)[C@H](CCCN=C(N)N)NC(=O)[C@@H](N)CCCN=C(N)N = 25 µM
3) NCCCC[C@H](NC(=O)[C@H](Cc1c[nH]c2ccccc12)NC(=O)[C@H](CCCCN)NC(=O)[C@H](Cc1c[nH]c2ccccc12)NC(=O)[C@H](Cc1c[nH]c2ccccc12)NC(=O)[C@H](CCCCN)NC(=O)[C@H](Cc1c[nH]c2ccccc12)NC(=O)[C@@H](N)CCCCN)C(N)=O = 6.25 µM

---

# Test system: Micrococcus luteus
Could you mark each record 1.0 if its MIC falls strictly under 2 µM, and 0.0 if it equals or exceeds it?

1) CC(C)C[C@H](NC(=O)CNC(=O)[C@H](CC(C)C)NC(=O)CNC(=O)[C@H](CC(N)=O)NC(=O)[C@H](CC(C)C)NC(=O)[C@H](CC(C)C)NC(=O)[C@H](CC(N)=O)NC(=O)CNC(=O)[C@H](CC(C)C)NC(=O)[C@@H](NC(=O)CNC(=O)[C@H](CC(C)C)NC(=O)[C@H](CC(C)C)NC(=O)CN)[C@@H](C)O)C(N)=O [GLLGTLGNLLNGLGL] = 0.0
2) CC[C@H](C)[C@H](NC(=O)[C@@H]1CCCN1C(=O)[C@H](CC(C)C)NC(=O)[C@H](Cc1ccc(O)cc1)NC(=O)[C@H](CCCCN)NC(=O)[C@H](CCCCN)NC(=O)[C@H](CC(C)C)NC(=O)[C@H](C)NC(=O)[C@H](CO)NC(=O)[C@H](CC(C)C)NC(=O)[C@H](Cc1ccccc1)NC(=O)CN)C(=O)N[C@H](C(=O)N[C@@H](CC(C)C)C(=O)N[C@@H](CCCCN)C(=O)N[C@@H](Cc1cnc[nH]1)C(=O)N[C@H](C(=O)O)C(C)C)C(C)C [GFLSALKKYLPIVLKHV] = 1.0
3) CC(C)C[C@@H]1NC(=O)CNC(=O)[C@H](CO)NC(=O)[C@H](C(C)C)NC(=O)CNC(=O)[C@@H](NC(=O)[C@H](CC(C)C)NC(=O)[C@@H](NC(=O)[C@H](CCCCN)NC(=O)[C@H](CCCCN)NC(=O)CNC(=O)[C@@H](NC(=O)CNC(=O)[C@H](CC(C)C)NC(=O)[C@@H](NC(=O)[C@H](CCCCN)NC(=O)[C@H](CO)NC(=O)[C@H](CC(C)C)NC(=O)[C@H](CC(C)C)NC(=O)CN)C(C)C)C(C)C)C(C)C)CSSC[C@@H](C(=O)O)NC1=O [GLLSKVLGVGKKVLCGVSGLC] = 1.0
4) CC[C@H](C)[C@H](NC(=O)[C@@H](NC(=O)[C@@H]1CCCN1C(=O)[C@@H](NC(=O)[C@@H]1CCCN1C(=O)[C@H](CCCCN)NC(=O)[C@H](CCCCN)NC(=O)[C@H](CO)NC(=O)CN)C(C)C)[C@@H](C)CC)C(=O)N[C@@H](Cc1ccc(O)cc1)C(=O)N[C@H]1CSSC[C@@H](C(=O)O)NC(=O)[C@H](CCCCN)NC(=O)CNC(=O)[C@H]([C@@H](C)O)NC(=O)[C@H](CCCN=C(N)N)NC(=O)[C@H](CCCN=C(N)N)NC(=O)[C@H](CC(N)=O)NC1=O [GSKKPVPIIYCNRRTGKC] = 0.0
5) CC[C@H](C)[C@H](NC(=O)[C@@H](NC(=O)[C@H](C)NC(=O)[C@H](C)NC(=O)[C@@H](NC(=O)[C@H](CCCCN)NC(=O)[C@H](CCCCN)NC(=O)[C@@H](NC(=O)[C@@H](NC(=O)[C@H](CC(=O)O)NC(=O)[C@H](Cc1ccccc1)NC(=O)[C@H](CC(C)C)NC(=O)CN)C(C)C)[C@@H](C)CC)C(C)C)C(C)C)C(=O)NCC(=O)NCC(=O)N[C@@H](CC(C)C)C(N)=O [GLFDVIKKVAAVIGGL] = 0.0
